Attribution: PubChem BioAssay AID463218

- measurement_notes: tim23-1 mutant yeast growth inhibitors, confirmation, luminescence, single concentration (AID 463218);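 note: temperature-sensitive tim23-1 mutant grown at 25 °C; 0% = DMSO wells with yeast and 100% = medium wells without yeast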
- particulars: S. cerevisiae tim23-1 growth, BacTiter-Glo luminescence, 24 h; at 20 µM; hits give high values
About 3,700 (84%) of roughly 4,400 compounds were called active. The set was probably picked from earlier hits. Only a sample is shown.
measured_attribute: inhibition (%)
// note: answer is a bare numeric in %

Solved entries (count: 3):
{"compound": "Cc1cc(Nc2ccc(Br)cc2)nc2ccccc12", "measure_unit": "%", "inhibition": 68.2}
{"compound": "O=[N+]([O-])c1ccc2c(c1)Nc1nc3ccccc3nc1N2", "measure_unit": "%", "inhibition": 48.9}
{"compound": "O=C(c1cc(-c2ccc(O)cc2)on1)N1CCCc2ccccc21", "measure_unit": "%", "inhibition": 50.6}

What does the data say about its inhibition? Entry: "O=C(Nc1ccccc1)c1nnsc1S(=O)(=O)c1ccc(Cl)cc1" 93

Can you check "Cc1nn(Cc2ccc(Cl)c(Cl)c2)c(C)c1NC(=O)c1cc(C2CC2)on1" next? 59.7
